# ASSAY_TEXT: Caco-2 permeability assay (CacoReady kit)
# Type: in vitro ADME
# EXPERIMENTAL_SETUP: human; Caco-2 barrier
A collection of molecules and their measured Papp

MOLECULE: CCNC(=O)C(=O)CC[C@H](NC(=O)c1ncc(OC)o1)C(=O)Nc1cccn(CCC(=O)NC2C3CC4CC(C3)CC2C4)c1=O (some centres unmarked)
READING: 1 to 10 ×10⁻⁶ cm/s

Papp recorded for this molecule, CCNC(=O)C(=O)CC[C@H](NC(=O)c1ccn(C)n1)C(=O)Nc1cccn(CC(=O)N[C@]23C[C@H]4C5CC6CC4[C@H](C2)C(C6)[C@H]5C3)c1=O (single isomer, unassigned) , is < 1 ×10⁻⁶ cm/s
